B1: DnaJ homolog subfamily C member 5, residues 16 to 77; numbered along this chain, Q9H3Z4 (parent)
chain: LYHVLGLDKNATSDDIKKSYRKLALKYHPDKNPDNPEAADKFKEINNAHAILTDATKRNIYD

# Variants of: B1
# protocol-notes: abundance fitness (aPCA) (normalised: wild type 0, dead -1); higher = more abundant; growth selection in yeast, the domain comes from the species named
# protocol-conditions: Homo sapiens
Can you tell me abundance fitness for the items I'm about to list?
Lab note: write the figure by itself, no unit.

abundance fitness reported for this variant LYHVLGLDKIATSDDIKKSYRKLALKYHPDKNPDNPEAADKFKEINNAHAILTDATKRNIYD [N10I] : -0.741

Just so you know, measured abundance fitness for LYHVLGLDKNATSDDIKKSYRKLALKYHPDKNPDNPEAADKFKEINNGHAILTDATKRNIYD [A48G] came out at -0.455

abundance fitness for LYHVLGLDKNATSDDIKKSYRKLALKYHPDKNPDNPEAADKFKEINNAHKILTDATKRNIYD [A50K] is -0.091

// sample LYHVLGLDKNATSDDIKKWYRKLALKYHPDKNPDNPEAADKFKEINNAHAILTDATKRNIYD [S19W] , its abundance fitness was -0.813

// sample LYHVLGLDYNATSDDIKKSYRKLALKYHPDKNPDNPEAADKFKEINNAHAILTDATKRNIYD [K9Y] , its abundance fitness was -0.163

Short answer for LYHVLGLDKNATSDDIKKSYRKLALKYHSDKNPDNPEAADKFKEINNAHAILTDATKRNIYD [P29S] : abundance fitness was -0.159

Documented abundance fitness of LYHVLGLKKNATSDDIKKSYRKLALKYHPDKNPDNPEAADKFKEINNAHAILTDATKRNIYD [D8K] : -0.516

abundance fitness for LYHVLGLDKNATSDDIKKSYRKLALKYHPDKNRDNPEAADKFKEINNAHAILTDATKRNIYD [P33R] is 0.064

Short answer for LYHVLGLDKNATSDDIKKSYRKLALKYQPDKNPDNPEAADKFKEINNAHAILTDATKRNIYD [H28Q] : abundance fitness was 0.34

The value of abundance fitness measured for the variant LYHVLGLDKNATSDDIKKSYRKLALKYHPDKNPDNPNAADKFKEINNAHAILTDATKRNIYD [E37N] turned out to be 0.042

For this variant ( LYHVLGLDKNATSDDIKKSYRKLALKYHPDKNPDNPYAADKFKEINNAHAILTDATKRNIYD [E37Y] ), measured abundance fitness is -0.226

LYHTLGLDKNATSDDIKKSYRKLALKYHPDKNPDNPEAADKFKEINNAHAILTDATKRNIYD [V4T] has a reported abundance fitness of -0.209

The variant identified as LYHVLGLDKNATSDFIKKSYRKLALKYHPDKNPDNPEAADKFKEINNAHAILTDATKRNIYD [D15F] registered its abundance fitness at -0.689

Noted for LYHVLGLDKNATSDDIKKSYRKLALKYHPDKSPDNPEAADKFKEINNAHAILTDATKRNIYD [N32S] : its abundance fitness reads -0.3

The variant listed as LYHVLGLDKNATSDDIKKSYRKLALKYHPDKNPDNPEAADKFKEINNAHAFLTDATKRNIYD [I51F] has a reported abundance fitness of -0.326

Documented abundance fitness of LYHVLGLDKNATSDDIKKSYRKLALKYLPDKNPDNPEAADKFKEINNAHAILTDATKRNIYD [H28L] : -0.536
